Taken from patent US20230399320A1.

target: Cp149 (truncated form of a HBV core protein) (Hepatitis B virus genotype D subtype ayw, UniProt P03146); construct: Cp149 (amino acids 1-149) is a truncated form of a HBV core protein; histidine tag (cleaved yes); made in house; host or cells: Escherichia coli BL21(DE3); assay: Protein based assay: immunoblot analysis of in vitro HBV capsid assembly; type: biochemical; conditions: read-out: Protein based assay (% inhibition), 1 μM
Sequence (P03146 1-149): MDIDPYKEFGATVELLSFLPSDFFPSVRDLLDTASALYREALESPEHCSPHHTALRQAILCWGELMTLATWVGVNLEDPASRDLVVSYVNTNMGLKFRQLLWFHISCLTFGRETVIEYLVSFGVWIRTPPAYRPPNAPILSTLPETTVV
# Lookup of reported inhibition at 1 µM keyed by entry
Express it in %; write the number only.

Recorded inhibition at 1 µM, per entry:
[
  {
    "compound": "CS(=O)(=O)c1nc(Nc2cc(F)c(F)c(F)c2)cc(N2CCNCC2)n1 [Compound 26b]",
    "u": "%",
    "inhibition at 1 µM": 92
  },
  {
    "compound": "CS(=O)(=O)c1nc(Nc2ccc(F)c(Cl)c2)cc(N2CCNCC2)n1 [Compound 26c]",
    "u": "%",
    "inhibition at 1 µM": 90
  }
]

Consider the additional compound presented here.
Query: Let me know recorded inhibition at 1 µM for CS(=O)(=O)c1nc(Nc2cc(F)c(F)c(F)c2)cc(NC2CCNCC2)n1 [Compound 26e] , thanks.
Response: 90

* * *

test system: HBV DNA; experiment: Quantitative PCR for measuring HBV DNA in cells (HBV DNA quantification); format: cell-based; conditions: Hepatitis B virus, read-out: HBV DNA quantification (IC50 μM)
Note to self: IC50 under 0.6 µM means met, ties and anything higher get not met.

Query: Quick check: does COc1ncccc1C(=O)NCCNc1cc(Nc2ccc(F)cc2Cl)nc(S(C)(=O)=O)n1 [Compound 9i] have IC50 under 0.6 µM?
Response: not met

Query: Quick check: does COc1ncccc1C(=O)NCCNc1cc(Nc2ccc(F)c(F)c2)nc([S+](C)[O-])n1 (centres unmarked) [Compound 9f] have IC50 under 0.6 µM?
Response: not met

Query: Quick check: does CSc1nc(Cl)cc(N(Cc2ccc(F)cc2)c2ccc(N3CCOCC3)cc2)n1 [Compound 10a] have IC50 under 0.6 µM?
Response: not met

Query: Quick check: does CSc1nc(NCCNC(=O)c2ccc(Cl)cc2Cl)cc(Nc2ccc(N3CCOCC3)cc2)n1 [Compound 4d] have IC50 under 0.6 µM?
Response: not met

* * *

system: HBV DNA; experiment: Quantitative PCR for measuring HBV DNA in cells (HBV DNA quantification); format: cell-based; conditions: Hepatitis B virus, read-out: HBV DNA quantification (IC50 μM)
Note to self: IC50 under 0.6 µM means class 1, ties and anything higher get class 0.

Use these answered entries as a reference point.
[
  {
    "compound": "COc1ncccc1C(=O)NCCNc1cc(Nc2ccc(F)cc2Cl)nc([S+](C)[O-])n1 (stereo not shown)",
    "systemName": "HBV DNA",
    "labelClass": "class 0"
  },
  {
    "compound": "CS(=O)(=O)c1nc(Cl)cc(Nc2ccc(F)cc2F)n1 [Compound 16a]",
    "systemName": "HBV DNA",
    "labelClass": "class 0"
  },
  {
    "compound": "COc1ncccc1C(=O)NCCNc1cc(Nc2ccc(F)c(F)c2)nc(S(C)(=O)=O)n1",
    "systemName": "HBV DNA",
    "labelClass": "class 0"
  },
  {
    "compound": "CC(C)(C)OC(=O)N1CCN(c2cc(Nc3ccc(F)c(F)c3)nc(S(C)(=O)=O)n2)CC1 [Compound 22g]",
    "systemName": "HBV DNA",
    "labelClass": "class 0"
  },
  {
    "compound": "CSc1nc(Cl)cc(N(CCc2ccc(F)cc2)c2ccc(N3CCOCC3)cc2)n1 [Compound 10b]",
    "systemName": "HBV DNA",
    "labelClass": "class 0"
  },
  {
    "compound": "CS(=O)(=O)c1nc(Nc2ccc(F)c(Cl)c2)cc(N2CC3(CNC3)C2)n1 [Compound 29b]",
    "systemName": "HBV DNA",
    "labelClass": "class 1"
  },
  {
    "compound": "CS(=O)(=O)c1nc(Cl)cc(Nc2cc(F)c(F)c(F)c2)n1 [Compound 16b]",
    "systemName": "HBV DNA",
    "labelClass": "class 1"
  },
  {
    "compound": "CC(C)(C)OC(=O)N1CCN(c2cc(Nc3ccc(Cl)cc3)nc(S(C)(=O)=O)n2)CC1 [Compound 22c]",
    "systemName": "HBV DNA",
    "labelClass": "class 1"
  }
]

Alright, here's another compound for you.
Query: Quick check: does CC(C)(C)OC(=O)N1CCN(c2cc(NCc3cc(F)c(F)c(F)c3)nc(S(C)(=O)=O)n2)CC1 [Compound 22l] have IC50 under 0.6 µM?
Response: class 0
